- System: Noggin (protein binding on small-molecule microarray)
- Assay Text: Noggin binders on small-molecule microarray, primary screen, biochemical, 635/667 nm fluorescence (AID 1095);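 note: score merges 667 nm feature fluorescence with signal to noise over triplicate slides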
- Condition Notes: 635 nm fluorescence, higher = more signal
A collection of compounds and their measured composite z-score
The answer should be a number; do not append a unit.

COc1ccc(COC(=O)NN=C2C[C@@H](O)[C@@H](O)[C@@H]3[C@@H]4C(=O)N(Cc5ccccc5)C(=O)[C@@H]4CC[C@@H]23)cc1: 0.123
CCOC(=O)[C@H](CC(C)C)NC(=O)CCC1CC(OC(=O)NCCc2ccc(F)cc2)CC2(CCCC(COC(=O)NCc3cccc4ccccc34)O2)O1 (some centres not stated): 0.261
CCOC(=O)CCN1C(=O)[C@H]2[C@H]3[C@H](O)[C@H](O)CC(=NOCC=C(C)CCC=C(C)C)[C@H]3CC[C@H]2C1=O: 0.386
CCOC(=O)NN=C1C[C@@H](O)[C@@H](O)[C@@H]2[C@@H]3C(=O)N(C[C@@H]4CCCO4)C(=O)[C@@H]3CC[C@H]12: 0.481
COc1ccc(OC[C@@H](CO)OC)cc1: 0.802
CC(C)(C)N1C(=O)[C@H]2[C@H]3[C@H](O)[C@H](O)CC(=NOC[C@@H](O)COCc4ccco4)[C@@H]3CC[C@H]2C1=O: 0.0106

// moving on: another record for composite z-score
The compound identified as COC(=O)[C@@H]1CC[C@H](C)[C@@H](c2ccc(C)cc2)N1C(=O)c1ccc(C=NOC[C@H]2O[C@H](c3ccccc3)C=C[C@@H]2Oc2ccc(OC)cc2)cc1 registered its composite z-score at -0.0296
